Let's look at some substances and their measured normalised inhibition (eCFP-eYFP dual reporter).
target: UBE2B; experiment: reporter assay of Huesken 2005; conditions: siRNA
Oligonucleotides are written 5' to 3', each unit as a sugar letter and its base; * is a phosphorothioate linkage, no mark a phosphodiester; rarer units and linkages stand in square brackets, end groups in braces. Plain capitals give the bases only. d = 2'-deoxy (DNA); r = 2'-OH (RNA)
Numbers only; they are read as %.

These recorded examples may help you get a feel for the data.
- SUBSTANCE: "sense rCrGrGrCrCrArUrUrGrUrUrGrArArCrArArArGdTdT / antisense rCrUrUrUrGrUrUrCrArArCrArArUrGrGrCrCrGdAdA"
  RESULT: 76.5
- SUBSTANCE: "sense rArCrCrArUrCrUrGrArArArArCrArArCrArUrCdTdT / antisense rGrArUrGrUrUrGrUrUrUrUrCrArGrArUrGrGrUdGdC"
  RESULT: 50.8
- SUBSTANCE: "sense rArGrArArArArGrArGrUrUrUrCrGrGrCrCrArUdTdT / antisense rArUrGrGrCrCrGrArArArCrUrCrUrUrUrUrCrUdCdA"
  RESULT: 77.8
- SUBSTANCE: "sense rGrCrArCrArGrCrUrUrUrArUrCrArGrGrArArAdTdT / antisense rUrUrUrCrCrUrGrArUrArArArGrCrUrGrUrGrCdTdG"
  RESULT: 83.8

Task: Param item = sense rUrArUrCrCrArArArArUrGrUrUrUrCrArUrCrCdTdT / antisense rGrGrArUrGrArArArCrArUrUrUrUrGrGrArUrAdAdA ; retrieve measured normalised inhibition (eCFP-eYFP dual reporter).
Result: 48.2

Task: Param item = sense rCrArGrGrCrArGrCrArCrArGrCrUrUrUrArUrCdTdT / antisense rGrArUrArArArGrCrUrGrUrGrCrUrGrCrCrUrGdGdC ; retrieve measured normalised inhibition (eCFP-eYFP dual reporter).
Result: 75.1

Task: Param item = sense rUrUrCrArUrCrCrArArArUrGrUrGrUrArUrGrCdTdT / antisense rGrCrArUrArCrArCrArUrUrUrGrGrArUrGrArAdAdC ; retrieve measured normalised inhibition (eCFP-eYFP dual reporter).
Result: 46

Task: Param item = sense rArCrGrArGrArArUrArUrGrArGrArArArArGrAdTdT / antisense rUrCrUrUrUrUrCrUrCrArUrArUrUrCrUrCrGrUdTdT ; retrieve measured normalised inhibition (eCFP-eYFP dual reporter).
Result: 84.2

Task: Param item = sense rUrGrCrArGrUrUrArUrArUrUrUrGrGrArCrCrAdTdT / antisense rUrGrGrUrCrCrArArArUrArUrArArCrUrGrCrAdTdT ; retrieve measured normalised inhibition (eCFP-eYFP dual reporter).
Result: 81.7

Task: Param item = sense rUrCrCrArArArUrArArArCrCrArCrCrArArCrUdTdT / antisense rArGrUrUrGrGrUrGrGrUrUrUrArUrUrUrGrGrAdTdA ; retrieve measured normalised inhibition (eCFP-eYFP dual reporter).
Result: 61.8

* * *

target: UBE2L6; assay: reporter assay of Huesken 2005; details: siRNA
Oligonucleotides are written 5' to 3', each unit as a sugar letter and its base; * is a phosphorothioate linkage, no mark a phosphodiester; rarer units and linkages stand in square brackets, end groups in braces. Plain capitals give the bases only. d = 2'-deoxy (DNA); r = 2'-OH (RNA)
Quick rule: normalised inhibition (eCFP-eYFP dual reporter) of at least 60% means Met, below that means Not met.

Please review the entries below; each comes with its answer.
- SUBSTANCE: "sense rArArCrCrArArGrArUrCrUrArCrCrArCrCrCrCdTdT / antisense rGrGrGrGrUrGrGrUrArGrArUrCrUrUrGrGrUrUdGdT"
  GROUP: "Not met"
- SUBSTANCE: "sense rCrUrGrCrGrGrArArCrCrUrGrUrCrCrArGrCrGdTdT / antisense rCrGrCrUrGrGrArCrArGrGrUrUrCrCrGrCrArGdGdT"
  GROUP: "Met"
- SUBSTANCE: "sense rGrUrGrArArUrArGrArCrCrGrArArUrArUrCrAdTdT / antisense rUrGrArUrArUrUrCrGrGrUrCrUrArUrUrCrArCdCdA"
  GROUP: "Met"
- SUBSTANCE: "sense rGrGrArUrGrGrArCrCrUrCrGrCrUrGrArCrCrUdTdT / antisense rArGrGrUrCrArGrCrGrArGrGrUrCrCrArUrCrCdGdC"
  GROUP: "Met"
- SUBSTANCE: "sense rArCrArCrArGrArArUrCrCrGrGrArGrCrUrGrUdTdT / antisense rArCrArGrCrUrCrCrGrGrArUrUrCrUrGrUrGrUdCdA"
  GROUP: "Met"

Task: Hello, I need to know if sense rUrUrCrArGrArArArGrArArUrGrCrCrGrArArGdTdT / antisense rCrUrUrCrGrGrCrArUrUrCrUrUrUrCrUrGrArAdCdA has measured normalised inhibition (eCFP-eYFP dual reporter) not below 60%. Thanks!
Result: Not met

Task: Hello, I need to know if sense rCrUrCrCrUrArCrCrCrGrArCrCrArArCrCrUrCdTdT / antisense rGrArGrGrUrUrGrGrUrCrGrGrGrUrArGrGrArGdGdA has measured normalised inhibition (eCFP-eYFP dual reporter) not below 60%. Thanks!
Result: Met

Task: Hello, I need to know if sense rCrArCrArArCrCrArArGrArUrCrUrArCrCrArCdTdT / antisense rGrUrGrGrUrArGrArUrCrUrUrGrGrUrUrGrUrGdAdA has measured normalised inhibition (eCFP-eYFP dual reporter) not below 60%. Thanks!
Result: Not met

Task: Hello, I need to know if sense rArCrCrArCrCrCrCrArArCrGrUrGrGrArCrGrAdTdT / antisense rUrCrGrUrCrCrArCrGrUrUrGrGrGrGrUrGrGrUdAdG has measured normalised inhibition (eCFP-eYFP dual reporter) not below 60%. Thanks!
Result: Met

Task: Hello, I need to know if sense rUrCrUrArCrCrArCrCrCrCrArArCrGrUrGrGrAdTdT / antisense rUrCrCrArCrGrUrUrGrGrGrGrUrGrGrUrArGrAdTdC has measured normalised inhibition (eCFP-eYFP dual reporter) not below 60%. Thanks!
Result: Not met

* * *

Let's look at some substances and their measured normalised inhibition (eCFP-eYFP dual reporter).
target: UBE2N; assay: reporter assay of Huesken 2005; settings: siRNA
Oligonucleotides are given in HELM: sugar(base)linkage, 5' to 3'; d 2'-deoxyribose, r ribose, m 2'-O-methylribose, p phosphate. ss, as = sense and antisense strand
Numbers only; they are read as %.

These recorded examples may help you get a feel for the data.
- SUBSTANCE: "RNA1{r(A)p.r(A)p.r(A)p.r(C)p.r(U)p.r(U)p.r(G)p.r(A)p.r(A)p.r(C)p.r(U)p.r(A)p.r(U)p.r(U)p.r(C)p.r(C)p.r(U)p.r(U)p.r(C)p.d(T)p.d(T)}|RNA2{r(G)p.r(A)p.r(A)p.r(G)p.r(G)p.r(A)p.r(A)p.r(U)p.r(A)p.r(G)p.r(U)p.r(U)p.r(C)p.r(A)p.r(A)p.r(G)p.r(U)p.r(U)p.r(U)p.d(A)p.d(A)}$$$RNA1{StrandType:ss}|RNA2{StrandType:as}$"
  TESTED SYSTEM: "UBE2N"
  RESULT: 43.6
- SUBSTANCE: "RNA1{r(A)p.r(C)p.r(C)p.r(A)p.r(A)p.r(A)p.r(A)p.r(U)p.r(U)p.r(U)p.r(A)p.r(U)p.r(C)p.r(A)p.r(U)p.r(C)p.r(C)p.r(U)p.r(A)p.d(T)p.d(T)}|RNA2{r(U)p.r(A)p.r(G)p.r(G)p.r(A)p.r(U)p.r(G)p.r(A)p.r(U)p.r(A)p.r(A)p.r(A)p.r(U)p.r(U)p.r(U)p.r(U)p.r(G)p.r(G)p.r(U)p.d(C)p.d(A)}$$$RNA1{StrandType:ss}|RNA2{StrandType:as}$"
  TESTED SYSTEM: "UBE2N"
  RESULT: 81.6
- SUBSTANCE: "RNA1{r(A)p.r(A)p.r(U)p.r(G)p.r(U)p.r(A)p.r(G)p.r(A)p.r(C)p.r(A)p.r(A)p.r(G)p.r(U)p.r(U)p.r(G)p.r(G)p.r(G)p.r(A)p.r(A)p.d(T)p.d(T)}|RNA2{r(U)p.r(U)p.r(C)p.r(C)p.r(C)p.r(A)p.r(A)p.r(C)p.r(U)p.r(U)p.r(G)p.r(U)p.r(C)p.r(U)p.r(A)p.r(C)p.r(A)p.r(U)p.r(U)p.d(A)p.d(G)}$$$RNA1{StrandType:ss}|RNA2{StrandType:as}$"
  TESTED SYSTEM: "UBE2N"
  RESULT: 93.8

Now, please, on to the next substance.
Task: Param item = RNA1{r(C)p.r(U)p.r(A)p.r(A)p.r(A)p.r(G)p.r(U)p.r(A)p.r(C)p.r(G)p.r(U)p.r(U)p.r(U)p.r(C)p.r(A)p.r(U)p.r(G)p.r(A)p.r(C)p.d(T)p.d(T)}|RNA2{r(G)p.r(U)p.r(C)p.r(A)p.r(U)p.r(G)p.r(A)p.r(A)p.r(A)p.r(C)p.r(G)p.r(U)p.r(A)p.r(C)p.r(U)p.r(U)p.r(U)p.r(A)p.r(G)p.d(G)p.d(G)}$$$RNA1{StrandType:ss}|RNA2{StrandType:as}$ ; retrieve measured normalised inhibition (eCFP-eYFP dual reporter).
Result: 79.5

meta.source: the OligoGym collection
